test system: Aedes aegypti larvae; test: larval motility relative to same well at 0 h (fraction); higher = more motile (less active compound), active = 0.4 or less; conditions: 10 µM; 24 h
Please use Satisfied whenever larval motility is not below 0.9, and Not satisfied whenever it is.

[in] Textbook exercise: given the entry `N#Cc1cc([N+](=O)[O-])ccc1Oc1ccccc1Cl` , state whether its larval motility is greater than or equal to 0.9.
[out] Satisfied

[in] Textbook exercise: given the entry `O[C@@](Cn1cnnn1)(c1ccc(F)cc1F)C(F)(F)c1ccc(-c2ccc(OCC(F)(F)F)cc2)cn1` , state whether its larval motility is greater than or equal to 0.9.
[out] Not satisfied

[in] Textbook exercise: given the entry `COCCn1cnc2c(=O)[nH]c(Nc3ccccc3)nc21` , state whether its larval motility is greater than or equal to 0.9.
[out] Not satisfied

[in] Textbook exercise: given the entry CCc1nc(N)nc(N)c1C#CC(C)c1cc(OC)cc(-c2ccncc2)c1 (stereo unspecified) , state whether its larval motility is greater than or equal to 0.9.
[out] Not satisfied

[in] Textbook exercise: given the entry `Cc1nc(N(C)C(=O)Cc2ccc(-c3ccccn3)cc2)sc1S(N)(=O)=O` , state whether its larval motility is greater than or equal to 0.9.
[out] Satisfied

[in] Textbook exercise: given the entry `Cc1c(CN(C)C(=O)/C=C/c2cnc3c(c2)C(C)(C)C(=O)N3)oc2ccccc12` , state whether its larval motility is greater than or equal to 0.9.
[out] Satisfied

[in] Textbook exercise: given the entry `O=S(=O)(Nc1ccc(-n2cccc2)cc1)c1ccc(Cl)c(Cl)c1` , state whether its larval motility is greater than or equal to 0.9.
[out] Not satisfied

[in] Textbook exercise: given the entry `CCc1cc(CCCOc2c(C)cc(-c3noc(C(F)(F)F)n3)cc2C)on1` , state whether its larval motility is greater than or equal to 0.9.
[out] Not satisfied

[in] Textbook exercise: given the entry `O=C(O)c1cc(-c2ccccc2)nc2ccccc12` , state whether its larval motility is greater than or equal to 0.9.
[out] Satisfied

[in] Textbook exercise: given the entry `COc1ccc2cc3[n+](cc2c1OCCN(CCn1cncn1)Cc1ccc(F)cc1F)CCc1cc2c(cc1-3)OCO2` , state whether its larval motility is greater than or equal to 0.9.
[out] Not satisfied

[in] Textbook exercise: given the entry `CO/N=C(\C(=O)N[C@@H]1C(=O)N2C(C(=O)OCOC(=O)C(C)(C)C)=C(/C=C\c3scnc3C)CS[C@H]12)c1csc(N)n1` , state whether its larval motility is greater than or equal to 0.9.
[out] Satisfied

[in] Textbook exercise: given the entry `Nc1nc(-c2ccccc2)nc2[nH]nc(Nc3ccc(C(F)(F)F)cc3)c12` , state whether its larval motility is greater than or equal to 0.9.
[out] Not satisfied

[in] Textbook exercise: given the entry `CN(O)C(=O)c1cc2c(CN3CCC[C@H]3C(N)=O)cn(Cc3ccc(F)cc3)c2cn1` , state whether its larval motility is greater than or equal to 0.9.
[out] Satisfied

[in] Textbook exercise: given the entry O=C1CCC(N2C(=O)c3ccccc3C2=O)C(=O)N1 (stereo unspecified) , state whether its larval motility is greater than or equal to 0.9.
[out] Satisfied

[in] Textbook exercise: given the entry `O=C(/C(=C/c1ccc(Cl)cc1Cl)n1ccnc1)c1ccc(Cl)cc1` , state whether its larval motility is greater than or equal to 0.9.
[out] Satisfied

[in] Textbook exercise: given the entry `Nc1cccc(-c2nc(N)nc(NC3Cc4ccccc4C3)n2)c1` , state whether its larval motility is greater than or equal to 0.9.
[out] Not satisfied

[in] Textbook exercise: given the entry `NC(=O)c1nccn([C@@H]2O[C@H](CO)[C@@H](O)[C@H]2O)c1=O` , state whether its larval motility is greater than or equal to 0.9.
[out] Satisfied

[in] Textbook exercise: given the entry COC(=O)Nc1nc2cc(S(=O)c3ccccc3)ccc2[nH]1 (stereo unspecified) , state whether its larval motility is greater than or equal to 0.9.
[out] Satisfied

[in] Textbook exercise: given the entry `O=C(c1ccccc1)N1CCN(c2ccccc2NC(=O)C(Cl)(Cl)Cl)CC1` , state whether its larval motility is greater than or equal to 0.9.
[out] Not satisfied

[in] Textbook exercise: given the entry `CC(C)(C)c1ccc(Oc2ccc(N)cc2)cc1` , state whether its larval motility is greater than or equal to 0.9.
[out] Satisfied

The measurements presented in this section are drawn from the supplement of paper PMC8540655.
